assay_overview: qHTS Assay for Modulators of Hemoglobin Beta Chain Splicing
measurement_conditions: HBB splicing reporter cell assay, EGFP reporter with mutant IVS2-654 intron; activation; series mostly up to 46.1 µM
The whole screen tested about 65,000 compounds, of which about 40 (0.06%) were called active. The call rests on the fitted dose curve; in most records, active means well fitted activation curve with a large enough effect; inconclusive means small, poorly fitted or top-dose-only effect; inactive means flat fitted curve, though single readings scatter. Only a selection was taken, and actives are over-represented in it overall.
# valid calls are active, inactive; nothing else

Worked examples follow.
compound	class_name
COCCn1c(=O)c(-c2cccs2)nc2cnc(N3CCN(C)CC3)nc21	inactive
O=NO	inactive
CC(C)NC(=O)N1CCCC2(CCN(C(=O)c3cccn3C)CC2)C1	inactive
CS(=O)(=O)N1CCC2(CC1)CN(c1ccncc1)C2	inactive
BrC1C(Br)C(Br)C(Br)C(Br)C1Br (stereo not given)	inactive
COc1cccc(-c2cc(NCCc3c[nH]c4ccc(OC)cc34)ncn2)c1	inactive

Now consider the entry below.
input: Which outcome was entered for the compound COC(=O)[C@@]1(Cc2ccc(OC)cc2)[C@H]2c3cc(C(=O)N4CCCC4)n(Cc4ccc(OC(F)(F)F)cc4)c3C[C@H]2CN1C(=O)c1ccccc1 in this test?
output: inactive

* * *

assay_overview: qHTS Assay for Modulators of Hemoglobin Beta Chain Splicing
measurement_conditions: HBB splicing reporter cell assay, EGFP reporter with mutant IVS2-654 intron; activation; series mostly up to 46.1 µM
Hit rate of the full screen: of about 65,000 compounds, about 40 (0.06%) were called active. Calls follow the shape of the dose curve; as a rule, active = well fitted activation curve with a large enough effect; inconclusive = small, poorly fitted or top-dose-only effect; inactive = flat fitted curve, though single readings scatter. The list comes from a sample in which actives are over-represented; it also holds close analogues and randomly drawn compounds.
# valid calls are true for active, false for inactive; nothing else

Worked examples follow.
molecule	class_name
CN/C(=C\[N+](=O)[O-])NCCSCc1csc(CN(C)C)n1	false
COC(=O)[C@@]1(Cc2ccc(F)cc2)[C@H]2c3cc(C(=O)N(C)C)n(CCc4c[nH]c5ccc(OC)cc45)c3C[C@H]2CN1C(=O)c1ccccc1	false
C[C@]12C=CC(=O)C=C1CC[C@@H]1[C@@H]2C(=O)C[C@@]2(C)[C@H]1CC[C@]2(O)C(=O)CO	false
CC(=O)Oc1ccccc1C(=O)Nc1ncc([N+](=O)[O-])s1	false

input: Which outcome was entered for the molecule CN(C)C(=O)/N=N\C(=O)N(C)C in this test?
output: false

input: Check OC(CCl)CCl too.
output: false

input: Check CCCn1c(-c2ccc(F)cc2)nc2c(NCC3CCCN3CC)nc(C)nc21 (stereo not drawn) too.
output: false

input: Check CN(C)C(=O)c1ccc(-c2cncnc2Nc2ccccc2)cc1 too.
output: false

input: Check CC(C)c1ccc2c([Si](C)(C)C)c3c(nc2c1)-c1cccc(=O)n1C3 too.
output: false

* * *

assay_overview: qHTS Assay for Modulators of Hemoglobin Beta Chain Splicing
measurement_conditions: HBB splicing reporter cell assay, EGFP reporter with mutant IVS2-654 intron; activation; series mostly up to 46.1 µM
In all, about 65,000 compounds went through this assay and about 40 (0.06%) were called active. Calls follow the shape of the dose curve; as a rule, active = well fitted activation curve with a large enough effect; inconclusive = small, poorly fitted or top-dose-only effect; inactive = flat fitted curve, though single readings scatter. This is one part of a sample in which actives are shown more often than they occur.
# valid calls are Y = active, N = inactive; nothing else

compound	class_name
CC[N+](C)(CC)CCC[n+]1c(-c2ccccc2)c2cc(N)ccc2c2ccc(N)cc21	N
Cc1cccc(C(=O)O)c1[N+](=O)[O-]	N

input: Which outcome was entered for the compound O=C(c1cnccn1)N1CCC[C@@]2(CCN(Cc3ccncc3)C2)C1 in this test?
output: N

input: Check Nc1ccc2c3c(cccc13)C(=O)NC2=O too.
output: Y

input: Check COc1ccc(-c2nc3cnc(Oc4ccccc4)nc3n(Cc3cccs3)c2=O)cc1 too.
output: N

input: Check N#Cc1cccc(-c2nc3cnc(N4CCNCC4)nc3n(C3CC3)c2=O)c1 too.
output: N

input: Check C=CC(=C)CCC=C(C)C too.
output: N

input: Check O=C1C(c2[nH]c3ccccc3c2O)=Nc2ccccc21 too.
output: N

input: Check COC(=O)[C@@]1(C)C=C[C@@H](Cc2ccccc2)N1C(C)=O too.
output: N

input: Check COC(=O)[C@@]1(Cc2ccccc2)[C@H]2c3cc(C(=O)N4CCCC4)n(Cc4ccc(C)o4)c3C[C@H]2CN1C(=O)c1ccccc1 too.
output: N

input: Check Cc1ccccc1-c1nc(N(C)Cc2ccco2)c2ccccc2n1 too.
output: N

input: Check COc1ccccc1CNc1ncnc2ccc(-c3ccc4c(c3)OCO4)cc12 too.
output: N
